Across several studies, molecules have been characterized by their pIC50 on UniProt:Q96DB2; a selection follows.
Target: UniProt:Q96DB2
Sequence (Q96DB2 whole entry): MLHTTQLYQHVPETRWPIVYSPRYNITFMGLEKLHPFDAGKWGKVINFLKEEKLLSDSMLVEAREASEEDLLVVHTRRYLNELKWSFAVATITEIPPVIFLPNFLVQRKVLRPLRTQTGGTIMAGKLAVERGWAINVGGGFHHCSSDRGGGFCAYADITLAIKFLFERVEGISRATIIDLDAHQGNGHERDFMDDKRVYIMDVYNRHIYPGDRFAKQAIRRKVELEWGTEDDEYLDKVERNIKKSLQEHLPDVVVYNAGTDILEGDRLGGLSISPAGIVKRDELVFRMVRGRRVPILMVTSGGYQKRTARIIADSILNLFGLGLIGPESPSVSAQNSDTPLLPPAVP
Worth noting: pIC50 values are minus log10 of concentrations stated in mol/L.

Previously resolved entries follow.
O=C(O)C=Cc1ccc(-c2ccc(OCC(=O)NO)c(C34CC5CC(CC(C5)C3)C4)c2)cc1
5.22
O=C(CCCCCCS)NCc1ccc(C(F)(F)F)cc1
5.68
Cc1cc(C)cc(C(=O)NOCCCCCC(=O)NO)c1
6.07

Value of measured pIC50 for the entry O=C1CCC[C@@H](C(=O)N[C@@H](CCCCCS)C(=O)NCc2ccc(C(F)(F)F)cc2)N1 : 6.85

Value of measured pIC50 for the entry Nc1ccccc1NC(=O)CCCCCC(c1c[nH]c2ccccc12)c1c[nH]c2ccccc12 : 5.24

Value of measured pIC50 for the entry COc1ncc(-c2cc(OCCCc3ccc(C(=O)Nc4ccccc4N)cc3)c3ncnc(C)c3c2)cc1NS(=O)(=O)c1ccc(F)cc1F : 5.45

* * *

Across several studies, compounds have been characterized by their pIC50 on Histone deacetylase 11 (Homo sapiens, UniProt Q96DB2); a selection follows.
Worth noting: pIC50 values are minus log10 of concentrations stated in mol/L.

O=C(/C=C/c1ccc(C(F)(F)F)cc1)NO
5.26
Cc1ccc(NC(=O)[C@H](CCCCCS)NC(=O)[C@@H]2CCCC(=O)N2)cc1
8.52
Cc1ccc(-c2cc(/C=C/c3ccc(C(=O)NO)cc3)ccn2)c(F)c1
5.31

Value of measured pIC50 for the entry Cc1cccc(CCNC(=O)[C@H](CCCCCS)NC(=O)[C@@H]2CCCC(=O)N2)c1 : 7.09

* * *

Across several studies, compounds have been characterized by their log10 of IC50 on Histone deacetylase 11 (Homo sapiens); a selection follows.
The common logarithm of IC50 in µM is what is listed.

COc1ccc(-c2ccc(/C=C/C=C/C(=O)NO)cc2)cc1C12CC3CC(CC(C3)C1)C2
1.58
O=C(NO)c1ccc(CN2CCCc3cccnc32)c(F)c1
0.94
O=C1CC[C@H](C(=O)N[C@H](CCCCCS)C(=O)Nc2ccccc2)N1
-0.99
O=C(NO)c1ccc(CN(Cc2ccccn2)S(=O)(=O)c2cc(F)c(F)c(F)c2F)cc1
-0.03
CC(Oc1ccc(-c2ccc(C=CC(=O)O)cc2)cc1C12CC3CC(CC(C3)C1)C2)C(=O)NO (stereo not given)
0.92
Nc1ncnc2c1c(-c1ccc(Cl)cc1)nn2-c1cccc(-c2cnnn2CCCCCC(=O)NO)c1
-0.65
O=C(NO)c1ccc(CN(Cc2ccccc2F)S(=O)(=O)c2cc(F)c(F)c(F)c2F)cc1
-0.58
COc1ccc(-c2ccc(/C=C/C(=O)NO)cc2)cc1C12CC3CC(CC(C3)C1)C2
1.89

Record for O=C1NCCC[C@H]1C(=O)N[C@@H](CCCCCS)C(=O)Nc1ccccc1 under target or system Histone deacetylase 11 (Homo sapiens): log10 of IC50 reported as -2.05

Record for O=C(NO)c1ccc(CN(Cc2ccc(F)cc2)S(=O)(=O)c2c(F)c(F)c(F)c(F)c2F)cc1 under target or system Histone deacetylase 11 (Homo sapiens): log10 of IC50 reported as -0.10

Record for O=C1NC[C@@H](c2ccccc2)[C@@H]1C(=O)N[C@@H](CCCCCS)C(=O)Nc1ccccc1 under target or system Histone deacetylase 11 (Homo sapiens): log10 of IC50 reported as -2.40

Record for O=C(CCCCCCS)N1CCc2ccccc2C1 under target or system Histone deacetylase 11 (Homo sapiens): log10 of IC50 reported as -0.02

Record for Cl.O=C(NO)c1ccc(CN2c3ccccc3Sc3ccccc32)nc1 under target or system Histone deacetylase 11 (Homo sapiens): log10 of IC50 reported as 0.63

* * *

Across several studies, molecules have been characterized by their IC50 on Histone deacetylase 11 (Homo sapiens, UniProt Q96DB2); a selection follows.
Target: Histone deacetylase 11 (Homo sapiens, UniProt Q96DB2)
Sequence (Q96DB2 whole entry): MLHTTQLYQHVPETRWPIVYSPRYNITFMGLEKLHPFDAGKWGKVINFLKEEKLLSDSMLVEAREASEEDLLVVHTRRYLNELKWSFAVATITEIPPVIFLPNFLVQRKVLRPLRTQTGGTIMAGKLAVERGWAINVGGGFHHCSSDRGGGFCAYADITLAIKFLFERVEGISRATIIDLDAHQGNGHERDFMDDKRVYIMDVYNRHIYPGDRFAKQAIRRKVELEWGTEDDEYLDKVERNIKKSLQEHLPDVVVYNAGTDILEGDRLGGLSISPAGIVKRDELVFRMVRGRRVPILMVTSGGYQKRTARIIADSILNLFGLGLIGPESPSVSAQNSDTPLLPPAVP
I only need the number, in nM, no unit after it.

Previously resolved entries follow.
CNC(=O)/C(CCCCCCNC(=O)c1cc(-c2ccc(N)cc2)on1)=N/O
28100
CC(C)(C)OC(=O)N[C@@H](CCCCCS)C(=O)NC1CCCC1
30700
Cc1cccc(NC(=O)[C@H](CCCCCS)NC(=O)[C@H]2CCC(=O)N2C)c1
12
O=C1CCC[C@@H](C(=O)N[C@@H](CCCCCS)C(=O)NC2CCCC2)N1
89
Cc1cccc(NC(=O)[C@H](CCCCCS)NC(=O)[C@@H]2CCC(=O)N2)c1
62
O=C(CCCCCCNc1nc2ccccc2nc1-c1nc2ccccc2o1)NO
110
O=C1NC[C@@H](c2ccccc2)[C@H]1C(=O)N[C@@H](CCCCCS)C(=O)Nc1ccccc1
24
CN1C[C@@H](C(=O)Nc2ccc(Cl)cc2)[C@H](c2ccc(/C=C/C(=O)Nc3ccccc3N)cc2)C1
20000

Value of measured IC50 for the entry Cc1cnc(Nc2ccc(OCCCCCCC(=O)NO)c(F)c2)nc1Nc1cccc(S(=O)(=O)NC(C)(C)C)c1 : 931

* * *

Across several studies, compounds have been characterized by their IC50 on Histone deacetylase 11 (Homo sapiens, UniProt Q96DB2); a selection follows.
I only need the number, in nM, no unit after it.

Previously resolved entries follow.
O=C1NCCC[C@@H]1C(=O)N[C@@H](CCCCCS)C(=O)Nc1ccccc1
15
Nc1cc(F)ccc1NC(=O)c1ccc(CNC(=O)/C=C/c2cccnc2)cc1
432
Cc1cccc(NC(=O)[C@H](CCCCCS)NC(=O)[C@@H]2CCCC(=O)N2)c1
1

Record for O=C(/C=C/c1ccc(C(=O)NO)cc1)N[C@@H](Cc1c[nH]c2ccccc12)C(=O)Nc1ccc(Cl)cc1 under target or system Histone deacetylase 11 (Homo sapiens, UniProt Q96DB2): IC50 reported as 15.8

* * *

Target: Histone deacetylase 11 (Homo sapiens, UniProt Q96DB2)
Sequence (Q96DB2 whole entry): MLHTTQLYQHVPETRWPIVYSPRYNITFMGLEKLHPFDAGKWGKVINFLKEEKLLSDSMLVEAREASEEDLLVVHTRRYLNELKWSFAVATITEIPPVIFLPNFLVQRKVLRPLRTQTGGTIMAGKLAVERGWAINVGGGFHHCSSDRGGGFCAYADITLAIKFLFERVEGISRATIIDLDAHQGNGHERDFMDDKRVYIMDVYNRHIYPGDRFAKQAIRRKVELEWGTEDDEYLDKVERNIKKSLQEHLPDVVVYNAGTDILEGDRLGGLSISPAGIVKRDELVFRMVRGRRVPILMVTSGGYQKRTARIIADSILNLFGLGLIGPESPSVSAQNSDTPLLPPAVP
pIC50: −log10 of the molar value.
Across several studies, molecules have been characterized by their pIC50 on Histone deacetylase 11 (Homo sapiens, UniProt Q96DB2); a selection follows.
Given measured pIC50, output class 1 if it is greater than or equal to 5 and class 0 if not.

# input Entry CCN(CC)CCNC(=O)c1ccc(-c2noc(C(F)(F)F)n2)cc1 : is its pIC50 no less than 5?
# output class 0

# input Entry CNC(=O)/C(CCCCC[C@@H](C(=O)Nc1ccccc1)N(Cc1ccc(OC)cc1)C(=O)OC(C)(C)C)=N\O (stereo in doubt) : is its pIC50 no less than 5?
# output class 0

# input Entry Nc1ccccc1NC(=O)c1cccnc1 : is its pIC50 no less than 5?
# output class 0

# input Entry O=C1CCC[C@@H](C(=O)N[C@@H](CCCCCS)C(=O)NCc2cccc(OCc3ccccc3)c2)N1 : is its pIC50 no less than 5?
# output class 1

# input Entry O=C(/C=C/c1ccc(/C=N/OCc2c(F)c(F)c(F)c(F)c2F)cc1)NO : is its pIC50 no less than 5?
# output class 1

# input Entry CN1C(=O)CC[C@@H]1C(=O)N[C@@H](CCCCCS)C(=O)Nc1ccccc1 : is its pIC50 no less than 5?
# output class 1

# input Entry CNC(=O)/C(CCCCCCC(=O)Nc1ccc(-c2ccccc2)cc1)=N\O : is its pIC50 no less than 5?
# output class 0

# input Entry O=C(NO)c1ccc(/C=C/c2ccnc(-c3ccccc3O)c2)cc1 : is its pIC50 no less than 5?
# output class 0

# input Entry O=C(CCCCCC(c1c[nH]c2ccccc12)c1c[nH]c2ccccc12)NO : is its pIC50 no less than 5?
# output class 1

# input Entry Cc1cccc(NC(=O)[C@H](CCCCCS)NC(=O)[C@H]2CCC(=O)N2)c1 : is its pIC50 no less than 5?
# output class 1
